Form field: inhibition (one value per entry).
assay remarks: 384-well plate pilot, post-Golgi transport modulator project, inhibition of yeast transport mutant growth (AID 636); also: test concentration not given here
experimental context: absorbance 615 nm, about 18 h, stronger effect = higher value
metric: inhibition (%)

                                    compound  measure_unit  endpoint_value
 0  Cc1ccc(NC(=O)CSc2nnc(-c3ccc(S(=O)(=O)N4CCOCC4)cc3)n2C)cc1             %           -3.33
 1  CN(C)c1ccc(O)c2c1CC1CC3[C@@H](N(C)C)C(=O)C(C(N)=O)=C(O)[C@]3(O)C(=O)C1=C2O (some centres not stated)             %            2.73
 2  CCOC(=O)C1CCN(C(=O)COc2ccc(S(=O)(=O)NC(C)C)cc2Cl)CC1             %            0.66
 3  CCOC(=O)C1=C[C@]2(CC)CCCN3CCc4c(n1c1ccccc41)[C@@H]32             %           -0.26
 4  COc1ccc(-c2nnc(SC(C)C(=O)Nc3nccs3)n2-c2ccccc2)cc1OC (configuration not stated)             %           -0.96
 5              COC(=O)c1ccccc1NC(=O)N1CCCC1             %            -3.2
 6           Cc1sc2ncnc(SCC(=O)N3CCCC3)c2c1C             %           -2.08
 7           CC(=O)c1cccc(NC(=O)NCc2ccco2)c1             %           -4.79
 8                Nc1cc(C(=O)O)ccc1Nc1ccccc1             %           -5.06
 9             COC(=O)c1ccccc1NC(=O)Nc1cccs1             %           -3.73
10  O=C(Cn1c(C(=O)NCC2CCCO2)cc2sccc21)c1ccccc1 (configuration not stated)             %           -1.56
11  CC(C)C1N=C2c3ccccc3N=C(SCC(=O)NCCc3ccc(S(N)(=O)=O)cc3)N2C1=O (configuration not stated)             %           -2.47
12  N#C/C(=C\c1ccc(O)c(O)c1)C(=O)NCCCc1ccccc1             %            1.04
13    CCCOC(=O)/C(C(N)=NCc1ccccc1)=C(\O)OCCC             %             1.3
14  C=C(C)C1Cc2c(C)nn(-c3nc(C)cc(C)n3)c2C1 (configuration not stated)             %           -6.58
15                     Cc1[nH]nc2c1C(=O)CCC2             %            0.68
16  Cc1ccc2c(c1)N(CC(=O)N1CCCCC1c1cccnc1)C(=O)CO2 (configuration not stated)             %           -2.84
17  COC(=O)CC(C(=O)Nc1cc(C(=O)OC)cc(C(=O)OC)c1)N1CCN(C)CC1 (configuration not stated)             %           -5.62
18               CCOc1ccccc1C(=O)NCCCn1ccnc1             %           -4.42
19  CCn1c(SCC(=O)Nc2ccccc2N2CCCCC2)nc2c1c(=O)n(C)c(=O)n2C             %           -6.13
20  Cc1[nH]nc(N=CC2=C(O)CC(C)(C)CC2=O)c1-c1ccccc1             %           -0.95
21  CCn1c2ccccc2c2cc(NC(=O)Cc3ccc(S(=O)(=O)N4CCOCC4)s3)ccc21             %           -1.84

Values were extracted from PubChem BioAssay.
